# System: LOC_OS06G16330-cb003
# Sequence (as listed by the source): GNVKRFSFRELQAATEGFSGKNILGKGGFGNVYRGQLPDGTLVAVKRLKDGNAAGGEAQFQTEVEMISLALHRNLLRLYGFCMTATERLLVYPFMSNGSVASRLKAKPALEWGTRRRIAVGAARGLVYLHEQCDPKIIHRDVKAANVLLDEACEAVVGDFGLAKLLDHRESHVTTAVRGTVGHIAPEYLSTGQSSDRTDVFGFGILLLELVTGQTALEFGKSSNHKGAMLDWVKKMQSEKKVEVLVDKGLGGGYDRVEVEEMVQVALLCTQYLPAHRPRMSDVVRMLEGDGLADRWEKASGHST
# assay protocol: thermal shift delta Tm vs DMSO control; higher = stronger stabilization (binding);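 further: purified Escherichia coli-expressed rice kinase domain construct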
# study conditions: 12.5 µM; protein concentration 2 µM
assay metric: thermal shift delta Tm
Be sure to follow the number with its unit.

Worked examples, 5 compounds total:
[[record]]
compound = "Cc1nc2ccc(-n3ncc(C(=O)c4cc5ccccc5[nH]4)c3N)cc2[nH]1"
result = "0.87 °C"

[[record]]
compound = "FC(F)(F)c1ccc(CNc2ccc(Cc3c[nH]c4ncc(Cl)cc34)cn2)cn1"
result = "8.9 °C"

[[record]]
compound = "CCCCCCCCCCCCCCCCn1cc[n+](Cc2ccccc2)c1C"
result = "-4.53 °C"

[[record]]
compound = "Cc1cn(-c2cc(NC(=O)c3ccc(C)c(Nc4nccc(-c5cnccn5)n4)c3)cc(C(F)(F)F)c2)cn1"
result = "-0.09 °C"

[[record]]
compound = "COc1cc(Nc2c(C#N)cnc3cc(OCCCN4CCN(C)CC4)c(OC)cc23)c(Cl)cc1Cl [Bosutinib (SKI-606)]"
result = "-0.26 °C"


Name the reported thermal shift delta Tm value associated with the compound C=CC(=O)N1CCC[C@@H](n2nc(-c3ccc(Oc4ccccc4)cc3)c3c(N)ncnc32)C1 1.99 °C

Returns the measured thermal shift delta Tm for the input compound. Input: COc1cc2ccc(=O)oc2cc1O -0.43 °C

What thermal shift delta Tm value was documented for this compound, N#Cc1ccc2[nH]c(O)c(-c3ccc(CN4CCOCC4)cn3)c2c1 ? -0.35 °C

Record request: thermal shift delta Tm value, item Cc1c(NC(=O)OC[C@@H]2COCCN2)cn2ncnc(Nc3ccc4c(cnn4Cc4cccc(F)c4)c3)c12 -0.49 °C

Bench note: what thermal shift delta Tm did CCN1C(=O)CNc2ncc(-c3ccc(-c4nc[nH]n4)nc3C)nc21 show? -0.44 °C

Look up thermal shift delta Tm: COc1cc2ncnc(Nc3ccc(F)c(Cl)c3)c2cc1OCCCN1CCOCC1 [Gefitinib (ZD1839)] 2.35 °C

I am curious: what thermal shift delta Tm value has been reported for CCCCOc1c(C(=O)c2c(F)cc(C)cc2F)c[nH]c2nncc1-2 ? 0.88 °C

Look at this compound and give its reported thermal shift delta Tm. Cn1ncc(Cl)c1-c1cc(C(=O)N[C@H](CN)Cc2cccc(F)c2)sc1Cl 0.52 °C

What does the data say about its thermal shift delta Tm? Entry: C[S+]([O-])c1ccc(-c2nc(-c3ccc(F)cc3)c(-c3ccncc3)[nH]2)cc1 (stereo not drawn) 0.69 °C

Look up thermal shift delta Tm for this compound: O=C(NC(NC(=S)Nc1ccc(F)c([N+](=O)[O-])c1)C(Cl)(Cl)Cl)C(c1ccccc1)c1ccccc1 (stereo not drawn) 0.69 °C

---

# Tested on: LOC_OS01G67340-cb003
# assay protocol: thermal shift delta Tm vs DMSO control; higher = stronger stabilization (binding)
# study conditions: 12.5 µM; protein concentration 2 µM
Lab note: anything with thermal shift delta Tm at or over 0.2 °C counts as label 1; the rest go in label 0.

Some solved cases for reference:
[[record]]
compound = "Oc1ccc(-c2nc(-c3ccc(F)cc3)c(-c3ccncc3)[nH]2)cc1"
assigned_category = "label 0"

[[record]]
compound = "c1cn2cc(-c3ccc4cn[nH]c4c3)nc(Nc3ccc(N4CCOCC4)cc3)c2n1"
assigned_category = "label 1"

[[record]]
compound = "Cc1c(Cn2c(C)nc3c(C(=O)O)cc(N4CCOCC4)cc32)cccc1C(F)(F)F"
assigned_category = "label 1"


Hi team, for Cc1cc(Nc2ncnc3ccc(NC4=NC(C)(C)CO4)cc23)ccc1Oc1ccn2ncnc2c1 , is the recorded thermal shift delta Tm at or above 0.2 °C? label 0

Textbook exercise: given the entry NC1(c2ccc(-c3nc4ccn5c(=O)[nH]nc5c4cc3-c3ccccc3)cc2)CCC1 , state whether its thermal shift delta Tm is greater than or equal to 0.2 °C. label 0

Please tell me: is the compound Cc1cc(Nc2cc(N3CCN(C)CC3)nc(/C=C/c3ccccc3)n2)n[nH]1 at or over 0.2 °C in terms of thermal shift delta Tm? label 1
